Just for reference, paper PMC4596473 is where these values come from.

Assay: clinical
Conditions: human, in vivo, po, 5 mg, Tmax
reported property: Tmax (h)
Reply numerically in h, unit not repeated.

// recorded Tmax for CCOc1ccc(Cc2cc([C@@H]3S[C@H](CO)[C@@H](O)[C@H](O)[C@H]3O)c(OC)cc2C)cc1 [Luseogliflozin] : 1.3

* * *

Assay: clinical
Conditions: human, in vivo, po, 20 mg
reported property: Cmax (ng/mL)
Give the quantity in ng/mL, number only.

// Cmax value for "CCOc1ccc(Cc2cc([C@@H]3S[C@H](CO)[C@@H](O)[C@H](O)[C@H]3O)c(OC)cc2C)cc1" : 787

* * *

Assay: clinical
Conditions: human, in vivo, po, 20 mg, Tmax
reported property: Tmax
Please answer using a numeric value trailed by its unit.

Lab book: Tmax of "CCOc1ccc(Cc2cc([C@@H]3S[C@H](CO)[C@@H](O)[C@H](O)[C@H]3O)c(OC)cc2C)cc1" noted as 1.5 h

* * *

Test: clinical
Conditions: human, in vivo, po, 400 mg
reported property: AUC(0-inf)
# answer = value followed by unit

Per the records, this compound ( COc1c(N2C[C@@H]3CCCN[C@@H]3C2)c(F)cc2c(=O)c(C(=O)O)cn(C3CC3)c12 [Moxifloxacin, moxifloxacin, reference compound] ) has AUC(0-inf) equal to 60000 ng·h/mL

* * *

Assay: clinical
Conditions: human, in vivo, po, 400 mg
reported property: Cmax (ng/mL)
API: value field is a number in ng/mL; no unit string.

Entry COc1c(N2C[C@@H]3CCCN[C@@H]3C2)c(F)cc2c(=O)c(C(=O)O)cn(C3CC3)c12 [Moxifloxacin, moxifloxacin, reference compound] — recorded Cmax = 3880
